- Experimental details: in vitro
- Experimental context: human, hela cells, % viability
Observation type: viability at 28.5 h, 10 µM (%)
Give the number; % is assumed, so skip it.

Some compounds with known viability at 28.5 h, 10 µM results, for comparison:
Look at this compound and give its reported viability at 28.5 h, 10 µM. Cc1[nH]c2ccc(F)cc2c1-c1cn2c3c(nnc2n1)CCCC3
92.3

Subsequent entry: CCCCn1cnc2c(c1=O)c1nc3ccccc3nc1n2CCc1ccc(OC)cc1
85.7

Subsequent entry: Nc1nc2n(n1)C1(CCCCC1)C1=C(CCCC1)N2
86.7

Consider the additional compound presented here.
Look at this compound and give its reported viability at 28.5 h, 10 µM. COc1ccc(C)cc1NC(=O)c1cnc2n(c1=O)CCS2
108

Source: paper PMC12040169
